recorded-conditions: 298.15 K; 101.33 kPa; Liquid; Pycnometric method
measurement-kind: mass density (kg/m3)
Enter your answer as a number in kg/m3; do not include the unit.

- molecule: "c1ccccc1 [benzene]"
  measurement-kind: "mass density"
  reported-value: 873.64
- molecule: "Cc1ccccc1C [1,2-dimethylbenzene]"
  measurement-kind: "mass density"
  reported-value: 875.9
- molecule: "Cc1ccccc1 [toluene]"
  measurement-kind: "mass density"
  reported-value: 862.22

Identify measured mass density corresponding to Cc1ccc(C)cc1 [1,4-dimethylbenzene]
856.65

* * *

Parameter: speed of sound. Scope: all listed entries.
recorded-conditions: 298.15 K; 101.33 kPa; Liquid; Linear variable-path acoustic interferometer
Enter your answer as a number in m/s; do not include the unit.

- compound: "C1CCOCC1 [tetrahydropyran]"
  speed of sound / m/s: 1272

Identify measured speed of sound corresponding to Cc1ccc(C)cc1 [1,4-dimethylbenzene]
1310

Identify measured speed of sound corresponding to Cc1ccccc1C [1,2-dimethylbenzene]
1346

Identify measured speed of sound corresponding to c1ccccc1 [benzene]
1298

Identify measured speed of sound corresponding to Cc1ccccc1 [toluene]
1303
